Tested on: Lewis lung carcinoma i.m., BDF1 mice, T/C %
Assay: NCI In Vivo Anticancer Drug Screen. Data for tumor model Lewis Lung Carcinoma (intramuscular) in B6D2F1 (BDF1) mice
Settings: endpoint: median survival time; dose: 12.5 mg/kg/injection; schedule: Q01DX011 (ip); vehicle: Klucel (hydroxypropylcellulose) (HPC); higher = longer survival
Records with an inconclusive call do not appear.
For each of the compounds below, state its T/C.

Reported T/C of CC(CN1CC(=O)NC(=O)C1)N1CC(=O)NC(=O)C1 (centres undefined) : 92 % of control

Reported T/C of `CS(=O)(=O)OCCCCOS(C)(=O)=O` : 89 % of control

Reported T/C of `CCn1cnc2c(=S)nc[nH]c21` : 106 % of control

Reported T/C of `O=C1CN=C(c2ccc[nH]2)c2cc(Cl)ccc2N1` : 100 % of control

====

Tested on: Lewis lung carcinoma i.m., BDF1 mice, T/C %
Assay: NCI In Vivo Anticancer Drug Screen. Data for tumor model Lewis Lung Carcinoma (intramuscular) in B6D2F1 (BDF1) mice
Conditions: endpoint: median survival time; dose: 50.0 mg/kg/injection; schedule: Q01DX011 (ip); vehicle: saline; higher = longer survival
Results filed as inconclusive are left out.
quantity_name: T/C

Reported T/C of NC1CONC1=O (stereo not given) : 94 % of control

Reported T/C of `COc1ccc(N=O)c(O)c1` : 100 % of control

Reported T/C of `CNc1ccc(O)cc1` : 101 % of control

Reported T/C of O=C(O)C1CSCN1 (stereo not given) : 97 % of control

Reported T/C of `Cc1cc[n+](CCc2ccccc2)cc1` : 106 % of control

====

For each of the compounds below, state its T/C.
Test system: Lewis lung carcinoma i.m., BDF1 mice, T/C %
Test: NCI In Vivo Anticancer Drug Screen. Data for tumor model Lewis Lung Carcinoma (intramuscular) in B6D2F1 (BDF1) mice
Conditions: endpoint: median survival time; dose: 75.0 mg/kg/injection; schedule: Q01DX011 (ip); vehicle: saline; higher = longer survival
Inconclusive results are not listed.

Reported T/C of `O=C[C@@H](CO)O[C@H](C=O)n1cnc2c(=O)[nH]cnc21` : 113 % of control

Reported T/C of O=c1[nH]cc(F)c(=O)n1C1OC(CO)C(O)C1O (centres undefined) : 107 % of control

Reported T/C of `CCN(CC)CCNc1ccc(CO)c2sc3ccccc3c(=O)c12` : 113 % of control

Reported T/C of `CNNCc1ccc(C(=O)NC(C)C)cc1` : 91 % of control

====

For each of the compounds below, state its T/C.
Test system: Lewis lung carcinoma i.m., BDF1 mice, T/C %
Test: NCI In Vivo Anticancer Drug Screen. Data for tumor model Lewis Lung Carcinoma (intramuscular) in B6D2F1 (BDF1) mice
Conditions: endpoint: mean tumor weight (est.); dose: 200.0 mg/kg/injection; schedule: Q01DX011 (ip); vehicle: saline with Tween-80; higher = larger tumour
Experimental: The antitumor activity of compounds was measured in mice bearing transplantable tumors. Survival or tumor size were measured and the results are expressed as the measurement made in the treated group (T) divided by the measurement made in the vehicle treated control group (C). The tumor model used in this assay is Lewis Lung Carcinoma (intramuscular) in B6D2F1 (BDF1) mice
Records with an inconclusive call do not appear.

Reported T/C of `COc1ccc(C(=O)c2cc(OC)c(OC)c(OC)c2)cc1OC` : 51 % of control

Reported T/C of `OCN(CO)c1nc(N(CO)CO)nc(N(CO)CO)n1` : 120 % of control

Reported T/C of O=[N+]([O-])c1ccc(N/N=C/CC(O)CO)c([N+](=O)[O-])c1 (stereo not drawn) : 52 % of control
